The reader will find reported log10(TGI) values listed item by item below.
Tested on: HOP-92 NSCLC
Assay: NCI tumour cell line growth inhibition, 48 h
Record value = log10 of TGI given in µM.

INSERT INTO results (compound, measurement_type, recorded_measurement) VALUES
  ('COc1ccc(/C(C#N)=C(/N)SCc2ccccc2Cl)cc1', 'log10(TGI)', 1.54),
  ('C=C(C)C(=O)O[C@H]1CC2=CC(CC(C)=C[C@H]3OC(=O)C(=C)C13)OC2=O (stereo not given in full)', 'log10(TGI)', 1.51),
  ('O=c1cc(-c2ccc(O)cc2)oc2cc(O)cc(O)c12', 'log10(TGI)', 1.75),
  ('CSc1nc(-c2ccc(Cl)cc2)c(C#N)c(=O)[nH]1', 'log10(TGI)', 1.99),
  ('Cc1ccccc1NC(=O)c1cc2ccccc2cc1O', 'log10(TGI)', 0.77),
  ('COc1ccccc1Cn1[nH]c(=O)c2cc([N+](=O)[O-])ccc21', 'log10(TGI)', 1.97),
  ('COC(=O)CCC(C)[C@H]1CCC2C3C(C[C@H](OC(C)=O)[C@@]21C)[C@@]1(C)CCC2(C[C@H]1C[C@H]3OC(C)=O)OOC1(CCCCC1)OO2 (stereo not given in full)', 'log10(TGI)', 1.42),
  ('CCc1c2c(nc3ccc(OCc4ccc(B5OC(C)(C)C(C)(C)O5)cc4)cc13)-c1cc3c(c(=O)n1C2)COC(=O)[C@]3(O)CC', 'log10(TGI)', -0.02),
  ('O=C1c2ccccc2C(=O)c2c(O)c(NCCNCCO)cc(O)c21', 'log10(TGI)', 1.39);

For the compound CC(=O)NC1C(OCc2ccccc2)OC(CO)C(O)C1OCC(=O)N1CCCC1C(=O)NC(CCC(=O)NCCCCCNc1c2ccccc2nc2cccc([N+](=O)[O-])c12)C(N)=O (stereo not given) , give its reported log10(TGI).
-1.00

====

Observed GI50 values for U251 CNS are listed in what follows.

Sample answers from the record:
INSERT INTO assay_data (compound, recorded_measurement) VALUES
  ('O=[N+]([O-])c1cc2c(ccc3occc32)o1', '3560 nM'),
  ('C=C1C(=O)O[C@H]2[C@H]1CC/C(CNC(=O)/C=C/c1ccc(Cl)cc1Cl)=C\CC[C@@]1(C)O[C@@H]21', '1650 nM'),
  ('NS(=O)(=O)c1ccc(N2N=C(c3cccs3)CC2c2ccccc2O)cc1 (stereo not given)', '998 nM'),
  ('CCCCN(CCCC)CCC(O)c1cc2ccc(C(F)(F)F)cc2c2cc(C(F)(F)F)ccc12 (stereo not given)', '1790 nM');

Pending compound:
Report GI50 on U251 CNS for this entry: `CC1=NN(C(=O)c2nn(-c3ccc(Cl)cc3)cc2O)C(=O)C1`
734 nM

====

The reader will find reported TGI values listed item by item below.
System: U251 CNS
Assay: NCI tumour cell line growth inhibition, 48 h

Sample answers from the record:
INSERT INTO measurements (compound, recorded_measurement) VALUES
  ('O=C(Nc1ccc(S(=O)(=O)Nc2ncccn2)cc1)c1c2ccccc2nc2ccccc12', '> 100 µM'),
  ('CC(=O)O/N=C/c1cc2c(cc1Br)OCO2', '> 34.9 µM'),
  ('C=CC[C@H]1[C@H](O[Si](C)(C)C(C)(C)C)C=CC(=O)[C@@H]1CC(=O)OCC', '27.8 µM'),
  ('O=C(O)C1CC2CC(=O)C1C2 (stereo not given)', '> 100 µM'),
  ('Cc1nc2nn(C)cc2c(=O)n1/N=C/c1ccccc1', '> 100 µM'),
  ('COC1C(O)C(C)OC(O[C@@H]2C[C@H]3CC[C@@H]4[C@H](CC[C@]5(C)[C@@H](C6=CC(=O)OC6)CC[C@]45O)[C@@]3(C)[C@H](O)C2)C1O (stereo not given in full)', '12.5 µM'),
  ('Cn1c2ccccc2c2[nH]c3ccccc3c(=O)c21', '> 100 µM'),
  ('Cc1ccc(S(=O)(=O)Nc2cc(Sc3ccccc3)c(O)c3ccccc23)cc1', '3.84 µM'),
  ('Nc1nc(NCCOCP(=O)(O)O)c(N)c(=O)[nH]1', '> 100 µM');

Pending compound:
For the compound O=C(CC(=O)C1CCOC1=O)C(=O)Nc1ccc(Cl)cc1 (stereo not given) , give its reported TGI.
> 100 µM
